B1: CD2-associated protein, residues 271 to 331; numbered along this chain, Q9Y5K6 (parent)
chain: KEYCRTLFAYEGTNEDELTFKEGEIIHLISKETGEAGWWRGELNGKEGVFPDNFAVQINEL

# Variants of: B1
# protocol: abundance fitness (aPCA) (normalised: wild type 0, dead -1); higher = more abundant; growth selection in yeast, the domain comes from the species named
# assay_conditions: Homo sapiens
Property: abundance fitness; scope: individual variants
Could you keep your reply to the number by itself?

Sample answers from the record:
| mutant_designation | abundance fitness |
| --- | --- |
| N14T | -0.041 |
| E17F | -0.53 |
| E22V | -0.171 |

Per the records, this variant ( P51E ) has abundance fitness equal to -0.573

Per the records, this variant ( R40D ) has abundance fitness equal to -0.546
